# Tested on: E. coli BW25113 ΔtolC growth inhibition, OD615
# experiment.summary: growth inhibitors of E. coli tolC mutant, dose response, strain BW25113 ΔtolC::kan (AID 617);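 further: growth read after 20 h at 37 °C with compound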
measurement.kind: pIC50
Hey, just a heads up that pIC50 is the negative log base 10 of the concentration in molar.

INSERT INTO assay_data (compound_string, reported_value) VALUES
  ('c1ccc(CC2CCN(Cc3nc(-c4ccccc4)no3)CC2)cc1', 4.87),
  ('Oc1c(CN2CCCCC2)cc(COCc2ccccc2)c2cccnc12', 4.88),
  ('O=S(=O)(NCCSc1ccc(Cl)cc1)c1ccc2c(c1)OCCO2', 5.05),
  ('N#Cc1nc(COc2ccc(-c3ccccc3)cc2)oc1NCc1cccnc1', 5.07),
  ('COc1ccc(-c2nnc(NC(=O)c3ccc(S(=O)(=O)N4CCc5ccccc5C4)cc3)o2)cc1', 6.66);

Shifting focus to the compound that follows.
**Q:** // returns reported pIC50 for input Cc1cccc(N2CCN(C(=O)Cc3c(C(=O)O)[nH]c4ccc(Cl)cc34)CC2)c1C
**A:** 5.12
